# experimental.system: CXCR4 (Homo sapiens, UniProt P61073)
# Sequence (P61073 whole entry): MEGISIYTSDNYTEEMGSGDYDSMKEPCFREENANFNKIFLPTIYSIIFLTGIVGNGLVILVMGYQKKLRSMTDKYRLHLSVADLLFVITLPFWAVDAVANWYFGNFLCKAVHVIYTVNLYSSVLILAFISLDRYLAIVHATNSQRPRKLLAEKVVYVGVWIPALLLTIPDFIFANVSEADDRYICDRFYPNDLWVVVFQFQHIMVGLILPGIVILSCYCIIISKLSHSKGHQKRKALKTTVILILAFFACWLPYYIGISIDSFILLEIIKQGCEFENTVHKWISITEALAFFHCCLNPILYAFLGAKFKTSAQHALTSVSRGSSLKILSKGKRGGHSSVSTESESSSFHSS
# assay: [125I]-238D2 competition binding on membranes from HEK293T cells transiently expressing CXCR4
# applied.conditions: at highest test concentration of 0.5 μM (footnote a: no significant displacement; b: maximum not reached)
experimental.endpoint: Displacem. (%) of [125I]-238D2 at 0.5 μM

Example cases with answers are listed next.
{"molecule": "238C5: Nanobody (VHH) raised against human CXCR4, SEQ ID NO: 243 (protein, Nanobody, Nanobody constructs or fragments thereof) VHH: EVQLMESGGGLVQAGGSLRLACAASGFTFEDYAIGWFRKAPGKEREGVSCISGSDGSTTYADSVKGRFTISTDNAKNTVYLEMNSLKPEDTAVYYCAQQYGVGGRVVCPGPYEYDVWGQGTQVTVSS", "Displacem. (%) of [125I]-238D2 at 0.5 μM": "45 ± 5^b %"}
{"molecule": "237G7: Nanobody (VHH) raised against human CXCR4, SEQ ID NO: 251 (protein, Nanobody, Nanobody constructs or fragments thereof) VHH: EVQLVESGGGLVQPGGSLRLSCAASSFIGNYHAIVWLRQAPGKELEGVSCITSRDSITYYASFVKGRFTISRDDAKNTVYLQMNNLKPEDTAVYYCAVBTSMTCPTLIVRFNYRGQGTQVTVSS", "Displacem. (%) of [125I]-238D2 at 0.5 μM": "0^a %"}

Note: attention shifts to another entry.
Recorded Displacem. (%) of [125I]-238D2 at 0.5 μM for 237D2: Nanobody (VHH) raised against human CXCR4, SEQ ID NO: 241 (protein, Nanobody, Nanobody constructs or fragments thereof) VHH: EVQLVESGGGLVQPGGSLRLSCAASGFTFDDYAMSWVRQAPGKGLEWVSAISWNGGSTDYADSVKGRFTISRDNAKNTLYLQMNSLKSEDTAEYYCARDQGPFYSGTYYYTRQYGYRGQGTQVTVSS , please?
0^a %
